TEST SYSTEM: T1, TBC1D9 (peptide code TBC1D9-002) peptide on HLA-A*02:01 (human)
T1 peptide: LLLPDVIKV
MEASUREMENT PROTOCOL: cytokine release
OUTCOME MEASURE: binding result

The cases that follow already have their binding result on record.
{"BINDER": "R42P3A9 (TCR, V domains shown) Valpha: GIQVEQSPPDLILQEGANSTLRCNFSDSVNNLQWFHQNPWGQLINLFYIPSGTKQNGRLSATTVATERYSLLYISSSQTTDSGVYFCAVHNFNKFYFGSGTKLNVKP Vbeta: AAGVIQSPRHLIKEKRETATLKCYPIPRHDTVYWYQQGPGQDPQFLISFYEKMQSDKGSIPDRFSAQQFSDYHSELNMSSLELGDSALYFCASSLLGQGYNEQFFGPGTRLTVL", "binding result": "no recognition"}
{"BINDER": "R37P1H1 (TCR, V domains shown) Valpha: AQTVTQSQPEMSVQEAETVTLSCTYDTSESNYYLFWYKQPPSRQMILVIRQEAYKQQNATENRFSVNFQKAAKSFSLKISDSQLGDTAMYFCAFGYSGGGADGLTFGKGTHLIIQP Vbeta: DAGVTQSPTHLIKTRGQQVTLRCSPKSGHDTVSWYQQALGQGPQFIFQYYEEEERQRGNFPDRFSGHQFPNYSSELNVNALLLGDSALYLCASSNEGQGWEAEAFFGQGTRLTVV", "binding result": "no recognition"}
{"BINDER": "R26P2A6 (TCR, V domains shown) Valpha: QKEVEQDPGPLSVPEGAIVSLNCTYSNSAFQYFMWYRQYSRKGPELLMYTYSSGNKEDGRFTAQVDKSSKYISLFIRDSQPSDSATYLCAMSDVSGGYNKLIFGAGTRLAVHP Vbeta: EAQVTQNPRYLITVTGKKLTVTCSQNMNHEYMSWYRQDPGLGLRQIYYSMNVEVTDKGDVPEGYKVSRKEKRNFPLILESPSPNQTSLYFCASTTPDGTDEQFFGPGTRLTVL", "binding result": "no recognition"}
{"BINDER": "R59P2E7 (TCR, V domains shown) Valpha: KQEVTQIPAALSVPEGENLVLNCSFTDSAIYNLQWFRQDPGKGLTSLLLIQSSQREQTSGRLNASLDKSSGRSTLYIAASQPGDSATYLCAVNSDYKLSFGAGTTVTVRA Vbeta: AAGVIQSPRHLIKEKRETATLKCYPIPRHDTVYWYQQGPGQDPQFLISFYEKMQSDKGSIPDRFSAQQFSDYHSELNMSSLELGDSALYFCASSLGLGTGDYGYTFGSGTRLTVV", "binding result": "no recognition"}
{"BINDER": "R26P3H1 (TCR, V domains shown) Valpha: AQSVAQPEDQVNVAEGNPLTVKCTYSVSGNPYLFWYVQYPNRGLQFLLKYITGDNLVKGSYGFEAEFNKSQTSFHLKKPSALVSDSALYFCAVRDMNRDDKIIFGKGTRLHILP Vbeta: DGGITQSPKYLFRKEGQNVTLSCEQNLNHDAMYWYRQDPGQGLRLIYYSQIVNDFQKGDIAEGYSVSREKKESFPLTVTSAQKNPTAFYLCASSRAEGGEQYFGPGTRLTVT", "binding result": "no recognition"}

// next item, binding result requested
Request: // lookup binding result for R26P1A9 (TCR, V domains shown) Valpha: SQQGEEDPQALSIQEGENATMNCSYKTSINNLQWYRQNSGRGLVHLILIRSNEREKHSGRLRVTLDTSKKSSSLLITASRAADTASYFCLIGASGSRLTFGEGTQLTVNP Vbeta: DAGVIQSPRHEVTEMGQEVTLRCKPISGHDYLFWYRQTMMRGLELLIYFNNNVPIDDSGMPEDRFSAKMPNASFSTLKIQPSEPRDSAVYFCASSYFGWNEKLFFGSGTQLSVL
Result: no recognition
